Cited source: patent US20240325555A1

# TARGET DESC: T1, human LIV-1 (human, UniProt Q13433 29-755)
# T1 sequence (looked up): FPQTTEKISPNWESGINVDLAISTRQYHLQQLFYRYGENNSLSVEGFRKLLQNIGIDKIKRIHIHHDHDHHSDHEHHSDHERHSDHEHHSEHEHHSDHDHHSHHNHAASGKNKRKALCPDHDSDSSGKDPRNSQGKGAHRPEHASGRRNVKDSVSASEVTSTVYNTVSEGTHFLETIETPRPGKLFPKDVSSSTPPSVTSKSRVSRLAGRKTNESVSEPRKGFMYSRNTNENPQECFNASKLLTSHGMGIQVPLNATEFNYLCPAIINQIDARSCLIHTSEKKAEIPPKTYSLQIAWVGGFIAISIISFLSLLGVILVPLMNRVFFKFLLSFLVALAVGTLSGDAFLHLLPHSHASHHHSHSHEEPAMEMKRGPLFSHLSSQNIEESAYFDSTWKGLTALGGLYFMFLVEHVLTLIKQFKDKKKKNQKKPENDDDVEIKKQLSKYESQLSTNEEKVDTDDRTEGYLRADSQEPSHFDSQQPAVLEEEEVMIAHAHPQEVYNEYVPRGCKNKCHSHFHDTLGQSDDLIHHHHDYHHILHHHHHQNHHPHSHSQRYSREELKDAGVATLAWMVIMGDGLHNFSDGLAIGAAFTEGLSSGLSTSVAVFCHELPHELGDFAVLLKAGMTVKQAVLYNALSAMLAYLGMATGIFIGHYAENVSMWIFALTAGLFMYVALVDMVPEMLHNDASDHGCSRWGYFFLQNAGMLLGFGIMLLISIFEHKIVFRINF
# METHOD DESCRIPTION: cell-based or functional assay
ASSAY ENDPOINT: Cytotoxicity IC50 (nM)
All answers are understood in nM, so give the number only.

Quick one: Cytotoxicity IC50 of 5D6B10 (antibody, V domains shown, Tested as chimeric antibody) VH: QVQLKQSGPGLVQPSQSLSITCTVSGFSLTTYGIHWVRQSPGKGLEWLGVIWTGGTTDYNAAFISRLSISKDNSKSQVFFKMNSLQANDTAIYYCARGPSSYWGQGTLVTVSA VL: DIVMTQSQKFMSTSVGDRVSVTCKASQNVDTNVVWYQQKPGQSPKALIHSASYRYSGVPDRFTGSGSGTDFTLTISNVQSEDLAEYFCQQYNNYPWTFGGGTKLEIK ? 1.55

Input 59C12C8 (antibody, V domains shown, Tested as chimeric antibody) VH: EVQLQQSGAELVRSGASVKLSCTASDFNIEDYYIHWVKQRPEQGLEWIGWIDPENGDTEYAPKFQGKATMTADTSSNTAYLQLSSLTSEDTAVYYCPHGGGFRVFDYWGQGTTLTVSS VL: DVLMTQTPLSLPVSLGDQASISCRSSQRIVHSNGNTYLEWYLQKPGQSPKLLIYKVSNRFSGVPDRFSGSGSGTDFTLKISRVEAEDLGVYYCFQGSHVPWTFGGGTKLEIK 0.81

Input 248H1G3 (antibody, V domains shown, Tested as chimeric antibody) VH: EVQLQQSGPELMKRGASVKISCKTSTFTFTEFTIHWVKQSHGKSLEWIGGINPNTGGTSYNQNFTGKATLTVDKSSITAYMELRSLTSEDSAIYYCAPNWDGYWFFDVWGAGTTVTVSS VL: DIQMTQSPASLSASVGETVTITCRASGNIQNYLAWYQQKQGKSPQLLVYGAKTLADGVPSRFSGSGSGTQFSLKINSLQPEDFGSYYCQHFWSPPLTFGAGTKLELK 2.99
